The measurements presented in this section are drawn from patent US20250250357A1.

Documented Kd across a set of binders
- study system: T1, human MSLN-FL-his protein (human, UniProt Q13421 296-580)
- T1 construct: made in HEK293E cells, purified on nickel column; also called hMSLN-FL-his; human MSLN full-length protein; not shown: His tag
- T1 sequence (Q13421 other isoform, or with tags, fused parts or gaps): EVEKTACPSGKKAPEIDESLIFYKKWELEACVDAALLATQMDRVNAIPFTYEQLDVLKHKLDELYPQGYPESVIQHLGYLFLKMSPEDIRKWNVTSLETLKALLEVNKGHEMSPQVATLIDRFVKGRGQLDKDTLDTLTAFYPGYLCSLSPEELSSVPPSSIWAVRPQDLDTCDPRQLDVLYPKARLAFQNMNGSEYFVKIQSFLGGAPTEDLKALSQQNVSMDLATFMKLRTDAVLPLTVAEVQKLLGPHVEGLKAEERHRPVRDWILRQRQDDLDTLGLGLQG
- measurement protocol: SPR (Biacore), antibody captured on Protein A chip;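 also: flow cell at 25 °C, antigen injected for 240 s at five concentrations from 200 nM downward, dissociation followed up to 600 s, double-referenced, fitted with Langmuir 1:1 model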
// units = nM; emit number, no label

binder="S009-F7.65.13 (antibody, human IgG1, kappa, V domains shown, human-murine chimeric antibody, human IgG1/kappa constant regions) VH: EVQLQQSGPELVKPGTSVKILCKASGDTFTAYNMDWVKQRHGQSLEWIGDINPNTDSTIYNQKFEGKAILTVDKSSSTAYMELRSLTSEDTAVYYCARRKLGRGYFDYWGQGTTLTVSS VL: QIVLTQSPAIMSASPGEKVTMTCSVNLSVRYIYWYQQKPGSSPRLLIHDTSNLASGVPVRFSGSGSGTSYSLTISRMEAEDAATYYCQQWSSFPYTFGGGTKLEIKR" measured_attribute=Kd unit=nM experimental_value=1.44

Entry S009-F7.33.24 (antibody, human IgG1, kappa, V domains shown, human-murine chimeric antibody, human IgG1/kappa constant regions) VH: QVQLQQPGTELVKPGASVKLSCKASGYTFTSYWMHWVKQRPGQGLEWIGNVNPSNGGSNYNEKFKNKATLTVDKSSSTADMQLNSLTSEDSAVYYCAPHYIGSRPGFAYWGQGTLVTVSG VL: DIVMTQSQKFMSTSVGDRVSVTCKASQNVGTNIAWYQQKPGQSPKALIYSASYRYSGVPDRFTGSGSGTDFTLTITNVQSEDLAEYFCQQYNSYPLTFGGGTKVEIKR needs its Kd filled in; supply it.
10.2
